# System: COLO 205 colon
# MEASUREMENT_NOTES: NCI tumour cell line growth inhibition, 48 h
MEASURE: GI50

INSERT INTO assay_data (input_smiles, val) VALUES
  ('CC(=O)Nc1ccc(-c2csc(Nc3cccc(-c4csc(C)n4)c3)n2)cc1', '1 µM'),
  ('O=c1oc2ccc(-c3ccc(F)cc3F)cc2c(=O)n1-c1cccc(C(F)(F)F)c1', '10.4 µM'),
  ('COc1cc(C(=O)N2CCN(C(=O)c3cc(OC)c(OC)c(OC)c3)C2=S)cc(OC)c1OC', '19.4 µM');

====

# Test system: RPMI-8226 leukemia
# MEASUREMENT_NOTES: NCI tumour cell line growth inhibition, 48 h; in the data active = GI50 below about 0.43 µM; inactive = the rest
Outcomes: yes (1) for active, no (0) for inactive

INSERT INTO results (molecule, assigned_class) VALUES
  ('O=C(Nc1ccc(Br)cc1F)c1cc(Cl)ccc1O', 'yes (1)'),
  ('COc1ccc(-c2ccc(=O)oc2C#Cc2cc(OC)c(OC)c(OC)c2)cc1O', 'yes (1)'),
  ('CCC[CH2][Sn]([CH2]CCC)([O]C(=O)c1ccc(OC)c(OC)c1OC)[O][Sn]([CH2]CCC)([CH2]CCC)[O]C(=O)c1ccc(OC)c(OC)c1OC', 'yes (1)'),
  ('Cc1cc(N[C@@H]2CCC[C@H](Nc3ccnc4cc(Cl)ccc34)C2)nc(N2CCCCCC2)n1', 'no (0)'),
  ('CC1(C)OC2C(CO[Si](C)(C)C(C)(C)C)OC(n3c(I)c(C#C[Si](C)(C)C)c(=O)[nH]c3=O)C2O1 (stereo not given)', 'no (0)'),
  ('O=C(/C=C/c1ccc[nH]1)c1ccc(-n2ccc(C(F)(F)F)n2)cc1', 'no (0)'),
  ('COC(=O)c1ccc2c(c1)C(=O)c1c-2n(CCCN=[N+]=[N-])c(=O)c2cc(OC)c(OC)cc12', 'no (0)'),
  ('S=c1[nH]c(=S)c2cc3ccccc3nc2[nH]1', 'no (0)'),
  ('COc1cc(Cl)cc(-c2nn(-c3cccc(NC(=O)c4ccc(N5CCOCC5)c(C(F)(F)F)c4)c3)cc2-c2ccncc2)c1', 'no (0)'),
  ('COc1cc(N(CCC#N)CCC#N)ccc1/C(N=Nc1ccc(Cl)cc1)=N/NC(=O)c1cc(Br)ccc1O', 'no (0)');

====

Overview of reported TGI across a group of compounds:
# Test system: SNB-78 CNS
# MEASUREMENT_NOTES: NCI tumour cell line growth inhibition, 48 h
MEASURE: TGI

INSERT INTO results (input_smiles, system_tested, measure, val) VALUES
  ('Cc1ccccc1C(=O)c1cc(O)ccc1O', 'SNB-78 CNS', 'TGI', '> 100 µM'),
  ('CCOC(=O)c1ccc(/C(C)=N/NC(N)=S)cc1', 'SNB-78 CNS', 'TGI', '> 100 µM'),
  ('C/C(N=NC(=S)N1CC2CCC(CC2)C1)=C1\C=CC=CN1O', 'SNB-78 CNS', 'TGI', '> 100 µM');

====

We begin with a simple list: items and their reported TGI.
# System: SF-539 CNS
# MEASUREMENT_NOTES: NCI tumour cell line growth inhibition, 48 h
MEASURE: TGI

INSERT INTO results (molecule, measure, val) VALUES
  ('Cc1ccc(C)c(NC(=O)c2cccc([N+](=O)[O-])c2O)c1', 'TGI', '> 100 µM'),
  ('O=C1CC2(CCC(O)(c3ccc4ccccc4c3)C(C(=O)c3ccc4ccccc4c3)C2)C(=O)c2ccccc2N1 (stereo unspecified)', 'TGI', '> 100 µM'),
  ('COc1ccc(C(=O)Nc2ccc(O)c(=O)cc2)cc1', 'TGI', '81.1 µM'),
  ('CC(NC(=O)Cc1ccccc1)NC(=O)C(C)C(=O)Nc1ccccc1 (stereo unspecified)', 'TGI', '> 100 µM'),
  ('COc1ccc2c(c1OCC(=O)O)C(=O)C(CCC(=O)O)CC2 (stereo unspecified)', 'TGI', '> 100 µM'),
  ('Cc1ccc(S(=O)(=O)n2c3c(c4ccccc42)CCN2C[C@H]([C@H](C)Br)CC[C@@H]32)cc1', 'TGI', '> 100 µM');

====

Measured TGI of individual entries
# Test system: HCC-2998 colon
# MEASUREMENT_NOTES: NCI tumour cell line growth inhibition, 48 h
MEASURE: TGI

INSERT INTO measurements (input_smiles, measure, val) VALUES
  ('COc1cc(OC)cc(C(=O)CC(=O)c2cc(OC)cc(OC)c2)c1', 'TGI', '> 100 µM'),
  ('N#CC(C#N)=C1SC(=Nc2ccccc2)C(=Nc2ccccc2)N1c1ccccc1', 'TGI', '> 72 µM'),
  ('Cc1c(N(C)C)ccc2c(=O)c3cccc(CC(=O)O)c3oc12', 'TGI', '> 100 µM'),
  ('CCOc1ccc(/C=C2\N=C(c3ccc([N+](=O)[O-])cc3)OC2=O)cc1', 'TGI', '> 100 µM'),
  ('CC(=NNC(=S)Nc1ccccc1)c1cccc(C(C)=NNC(=S)Nc2ccccc2)n1', 'TGI', '> 100 µM'),
  ('O=C(O)C(Cl)(Cl)Cl', 'TGI', '> 100 µM'),
  ('Cc1nc(C)c(N2CCN([N+](=O)[O-])CC2)c(=O)[nH]1', 'TGI', '> 100 µM'),
  ('O=C1OCC/C1=N/O', 'TGI', '> 100 µM'),
  ('O=P(O)(O)C(N=C(Nc1ccccc1)Nc1ccccc1)P(=O)(O)O', 'TGI', '> 100 µM'),
  ('NS(=O)(=O)c1ccc(NC(=S)/N=C/C2=C(O)c3ccccc3C2=O)cc1', 'TGI', '> 100 µM'),
  ('O=C1C=C/C(=N\N=C(c2ccccc2)c2ccccc2)O1', 'TGI', '> 10 µM'),
  ('NC1CCN(Cc2ccccc2)CC1', 'TGI', '> 100 µM');

====

# Test system: UO-31 renal
# MEASUREMENT_NOTES: NCI tumour cell line growth inhibition, 48 h
MEASURE: TGI

INSERT INTO assay_data (compound, val) VALUES
  ('CCC(C)(C)c1ccc(OCCCCNC(=O)c2ccc3ccccc3c2O)c(C(C)(C)CC)c1', '> 100 µM'),
  ('COc1ccc(N2C(=O)CC(=O)N(NC(=O)C(C)Oc3ccccc3C)C2=S)cc1 (stereo not drawn)', '> 100 µM'),
  ('Clc1ccc(-c2nnc3sc4nc5ccccc5c-4nn23)c(Cl)c1', '> 100 µM');

====

# Tested on: SNB-19 CNS
# MEASUREMENT_NOTES: NCI tumour cell line growth inhibition, 48 h
Recorded TGI by entry
MEASURE: TGI

INSERT INTO assay_data (compound, measure, val) VALUES
  ('CCN1CCN(c2cc(C)c3cc(NC(=O)c4ccc(OC)c(OC)c4)ccc3n2)CC1', 'TGI', '> 100 µM'),
  ('COc1ccc(-c2ccc(=O)oc2C#Cc2cc(OC)c(OC)c(OC)c2)cc1O', 'TGI', '> 100 µM'),
  ('COc1ccc(C(=O)/C=C/c2ccc(OCCCOc3ccc(/C=C/C(=O)c4ccc(OC)cc4)cc3)cc2)cc1', 'TGI', '> 100 µM'),
  ('CC(C)SC(=S)Sc1c(Cl)c(Cl)nc(Cl)c1Cl', 'TGI', '21.1 µM'),
  ('COc1ccc2/c(=C/c3ccc(N(C)C)cc3)c3cc(-c4ccccc4)[n+](C)n3c2c1', 'TGI', '2.2 µM'),
  ('COC(=O)c1c2c(c(C)[n+]([O-])c1C)C(=O)C=C(NCc1ccc(F)cc1)C2=O', 'TGI', '2.83 µM'),
  ('COc1cc2c(cc1OC)C1C3CCCCC3CCN1CC2 (stereo unspecified)', 'TGI', '> 100 µM'),
  ('O=C(Nc1cccc(C(F)(F)F)c1)c1ccc(NC2=C(Cl)C(=O)N(Cc3ccc(Cl)cc3Cl)C2=O)cc1', 'TGI', '> 100 µM'),
  ('CCOC(=O)C1S/C(=N\C(=N)N[N+](=O)[O-])N=C1C (stereo unspecified)', 'TGI', '> 100 µM'),
  ('COc1cc(N(CCC#N)CCC#N)ccc1/C(N=Nc1ccc(Cl)cc1)=N/NC(=O)c1cc(Br)ccc1O', 'TGI', '> 150 µg/mL'),
  ('O=C(O)CN1CCNCCN(CC(=O)O)CCN(CC(=O)O)CCNCC1', 'TGI', '> 100 µM'),
  ('Cc1c(O)nc(-n2[nH]c3c(c2=O)CCCC3)[nH]c1=O', 'TGI', '> 100 µM'),
  ('C/C(CC(=O)Nc1ccc(C)c(C)c1)=N\N(c1ccccc1)c1ccccc1', 'TGI', '> 100 µM'),
  ('Clc1ccc(-c2nnc3sc4nc5ccccc5c-4nn23)c(Cl)c1', 'TGI', '> 100 µM'),
  ('O=C(c1ccco1)c1c(C(F)(F)F)nc2ccc(Cl)cc2[n+]1[O-]', 'TGI', '> 100 µM'),
  ('CCCCCC#CCOC(=O)C(=[N+]=[N-])P(=O)(c1ccccc1)c1ccccc1', 'TGI', '> 10 µM'),
  ('COc1ccc(C2c3cn[nH]c3CC3CCCCC32)cc1 (stereo unspecified)', 'TGI', '43.5 µM'),
  ('N#Cc1nn(-c2cc(=O)[nH]c3ccc(Cl)cc23)c(N)c1C#N', 'TGI', '> 100 µM'),
  ('CNCCOC(=O)/C=C1\CC[C@H]2[C@@H]([C@@H](O)C(=O)[C@@H]3[C@]2(C)CC[C@H](O)[C@]3(C)C(=O)OC)[C@H]1C', 'TGI', '1.99 µM'),
  ('CC1CC2CCCC(O)=C2C(=O)O1 (stereo unspecified)', 'TGI', '> 64.8 µM'),
  ('CCOC(=O)c1ccc(/C(C)=N/NC(N)=S)cc1', 'TGI', '> 100 µM'),
  ('c1ccc2c(OCCSCCCCCCCCCCSCCOc3cccc4ccccc34)cccc2c1', 'TGI', '> 100 µM'),
  ('O=C1c2cc(-c3ccccc3)cnc2S(=O)(=O)N1c1ccc(Br)cc1', 'TGI', '35 µM'),
  ('S=c1c2cn[nH]c2nc2scc(-c3ccc(Cl)cc3)n12', 'TGI', '86.2 µM'),
  ('C=CCc1cc(-c2nc(=S)[nH][nH]2)ccc1N=NNc1ccc(C(=O)O)cc1', 'TGI', '> 100 µM'),
  ('CCNC(=S)NNC(=O)C12CC3CC(CC(C3)C1)C2', 'TGI', '> 100 µM'),
  ('CN(C)CC[C@H](CSc1ccccc1)Nc1ccc(S(=O)(=O)NC(=O)c2ccc(N3CCN(Cc4ccccc4-c4ccc(Cl)cc4)CC3)cc2)cc1[N+](=O)[O-]', 'TGI', '> 100 µM'),
  ('CSC1=N/C(=C\c2ccc(C)cc2)C(=O)N1CN1CCCCC1', 'TGI', '> 100 µM'),
  ('COc1cc(Cl)cc(-c2nn(-c3cccc(NC(=O)c4ccc(N5CCOCC5)c(C(F)(F)F)c4)c3)cc2-c2ccncc2)c1', 'TGI', '> 100 µM'),
  ('O=C(Nc1ccc(Br)cc1F)c1cc(Cl)ccc1O', 'TGI', '> 100 µM'),
  ('COc1ccc(-c2nc(SCC(=O)NNC(=S)Nc3ccccc3)[nH]c2-c2ccc(OC)cc2)cc1', 'TGI', '43.2 µM'),
  ('CCN1CN(c2ccccc2)C2(CCN(CC3COc4ccccc4O3)CC2)C1=O (stereo unspecified)', 'TGI', '> 100 µM'),
  ('O=[N+]([O-])c1ccc2occ3c2c1CCC3', 'TGI', '> 100 µM'),
  ('COCC(OC)C(CC=C(C#N)C#N)OC (stereo unspecified)', 'TGI', '> 100 µM'),
  ('COc1cccc(N2C(Cl)C(=O)C2c2c[nH]c3ccccc23)c1 (stereo unspecified)', 'TGI', '> 100 µM'),
  ('C#CC1/C(=C\C(=O)OC)CCCC1O (stereo unspecified)', 'TGI', '> 100 µM');
